Assay: Selectivity index, ratio of IC50 for african green monkey Vero cells to IC50 for Plasmodium falciparum D6
Format: toxicity, cell-based
Conditions: read-out: Ratio IC50
molecules and their reported selectivity ratio
Test Readout: selectivity ratio

mol=Cc1noc(C)c1Cn1cc(-c2ccnc(N)n2)c2cc(Br)ccc21 value_measured="> 6.5"
mol=Nc1nccc(-c2cn(C(=O)c3ccccc3)c3ccc(Br)cc23)n1 value_measured="> 8.5"
mol=Cc1noc(C)c1Cn1cc(-c2ccnc(N)n2)c2ccccc21 value_measured="> 6.3"
mol=Nc1nccc(-c2c[nH]c3ccc(Br)cc23)n1 value_measured="> 6"
mol=CN1CCN(C(=O)n2cc(-c3ccnc(N)n3)c3ccccc32)CC1 value_measured="> 7.7"
mol=Nc1nccc(-c2cn(Cc3ccc(Cl)s3)c3ccc(Br)cc23)n1 value_measured="> 4.4"

----------
Test system: Vero
Assay: Cytotoxicity against african green monkey Vero cells after 48 hrs by Neutral Red assay
Format: cell-based
Conditions: Chlorocebus sabaeus
This section presents compounds with their documented IC50 values.
Test Readout: IC50

compound=Nc1nccc(-c2c[nH]c3ccccc23)n1 study_target=Vero test_readout=IC50 value_measured="119 µM"
compound=Nc1nccc(-c2c[nH]c3ccc(Br)cc23)n1 study_target=Vero test_readout=IC50 value_measured="> 87 µM"
compound=Nc1nccc(-c2cn(Cc3ccc(Cl)s3)c3ccc(Br)cc23)n1 study_target=Vero test_readout=IC50 value_measured="> 60 µM"
compound=Nc1nccc(-c2cn(Cc3c4ccccc4cc4ccccc34)c3ccccc23)n1 study_target=Vero test_readout=IC50 value_measured="> 63 µM"
compound=Cc1noc(C)c1Cn1cc(-c2ccnc(N)n2)c2ccccc21 study_target=Vero test_readout=IC50 value_measured="> 78 µM"
compound="O=C1NC(c2c[nH]c3ccc(Br)cc23)Nc2ccccc21 (configuration not stated)" study_target=Vero test_readout=IC50 value_measured="> 73 µM"
compound=CN1CCN(C(=O)n2cc(-c3ccnc(N)n3)c3ccccc32)CC1 study_target=Vero test_readout=IC50 value_measured="> 74 µM"

----------
Listing: selectivity ratio of selected molecules
Assay: Selectivity index, ratio of IC50 for african green monkey Vero cells to IC50 for Plasmodium falciparum W2
Assay type: toxicity, cell-based
Conditions: read-out: Ratio IC50
Test Readout: selectivity ratio

mol=Nc1nccc(-c2cn(Cc3c4ccccc4cc4ccccc34)c3ccc(Br)cc23)n1 value_measured="> 4.5"
mol=Nc1nccc(-c2cn(Cc3ccc(Cl)s3)c3ccc(Br)cc23)n1 value_measured="> 5.9"
mol=Nc1nccc(-c2c[nH]c3ccccc23)n1 value_measured="> 26.8"
mol=CN1CCN(C(=O)n2cc(-c3ccnc(N)n3)c3ccccc32)CC1 value_measured="> 5.1"
mol=Nc1nccc(-c2cn(Cc3c4ccccc4cc4ccccc34)c3ccccc23)n1 value_measured="> 5.7"
